Recorded inhibition at 0.03 µM, one value per entry.
# tgt: Thromboxane A2 (TXA2) synthetase (Equus caballus)
# test details: Inhibitory Action on Thromboxane A2 (TXA2) Synthetase (indomethacin-treated horse platelet microsomes, TXB2 radioimmunoassay)
# Type: biochemical
# protocol conditions: 3 × 10^-8 M
# value in %; strip the unit string

>  <compound>
CC(C)(CCC/C=C(/c1ccccc1)c1cccnc1)C(=O)O [Compound 2-b]

>  <units>
%

>  <inhibition at 0.03 µM>
49

$$$$
>  <compound>
C#CCC(CCC/C=C(\c1ccccc1)c1cccnc1)C(=O)O (stereo not drawn) [3'-h]

>  <units>
%

>  <inhibition at 0.03 µM>
66

$$$$

# next compound below
O=C(O)C(CCCC=C(c1ccccc1)c1cccnc1)[S+]([O-])c1ccccc1 (stereo not drawn) [Compound 1-e] has a reported inhibition at 0.03 µM of 45

====

# tgt: UniProt:A0A9L0T8T9
# test details: Inhibitory Action on Thromboxane A2 (TXA2) Synthetase (indomethacin-treated horse platelet microsomes, TXB2 radioimmunoassay)
# Format: biochemical
# protocol conditions: 10^-7 M
Quick rule for you: inhibition at 0.1 µM at 90% or higher means true (1), lower means false (0).

Before answering, review these 5 worked examples.
>  <compound>
CC(C)(O)C(CCC/C=C(\c1ccccc1)c1cccnc1)C(=O)O (stereo not shown)

>  <category>
false (0)

$$$$
>  <compound>
Cc1ccc(S(=O)(=O)C(CCCC/C=C(\c2ccccc2)c2cccnc2)C(=O)O)cc1 (stereo not shown)

>  <category>
false (0)

$$$$
>  <compound>
N#Cc1ccc(CC(CCC/C=C(\c2ccccc2)c2cccnc2)C(=O)O)cc1 (stereo not shown)

>  <category>
true (1)

$$$$
>  <compound>
COC(=O)C(C)(CCC/C=C(\c1ccccc1)c1cccnc1)Sc1ccccc1 (stereo not shown)

>  <category>
false (0)

$$$$
>  <compound>
CSC(CCC/C=C(\c1ccccc1)c1cccnc1)C(=O)O (stereo not shown)

>  <category>
false (0)

$$$$

Could you tell me if the measured inhibition at 0.1 µM of C#CCC(CCC/C=C(\c1ccccc1)c1cccnc1)C(=O)O (stereo not shown) reaches 90% or more?
true (1)

Could you tell me if the measured inhibition at 0.1 µM of O=C(O)C(CCC/C=C(\c1cccnc1)c1cccs1)c1ccccc1 (stereo not shown) reaches 90% or more?
true (1)

Could you tell me if the measured inhibition at 0.1 µM of `CC(C)(CCC/C=C(\c1cccnc1)c1cccs1)C(=O)O` reaches 90% or more?
true (1)

Could you tell me if the measured inhibition at 0.1 µM of O=C(O)C(CCC/C=C(\c1ccccc1)c1cccnc1)C1=CCCC1 (stereo not shown) reaches 90% or more?
false (0)

Could you tell me if the measured inhibition at 0.1 µM of Cc1ccc(S(=O)(=O)C(CCCC/C=C(/c2ccccc2)c2cccnc2)C(=O)O)cc1 (stereo not shown) reaches 90% or more?
false (0)

Could you tell me if the measured inhibition at 0.1 µM of O=C(O)C(CCC/C=C(\c1ccccc1)c1cccnc1)Sc1ccccc1 (stereo not shown) reaches 90% or more?
true (1)

Could you tell me if the measured inhibition at 0.1 µM of O=C(O)C(CCCC=C(c1ccccc1)c1cccnc1)[S+]([O-])c1ccccc1 (stereo not shown) reaches 90% or more?
false (0)

====

# tgt: Thromboxane A2 (TXA2) synthetase (Equus caballus, UniProt A0A9L0T8T9)
# test details: Inhibitory Action on Thromboxane A2 (TXA2) Synthetase (indomethacin-treated horse platelet microsomes, TXB2 radioimmunoassay)
# Assay type: biochemical
# protocol conditions: 3 × 10^-8 M
measured metric: inhibition at 0.03 µM (%)
# value in %; strip the unit string

>  <compound>
CC(C)(CCCC/C=C(\c1ccccc1)c1cccnc1)C(=O)O [Compound 1-l]

>  <measured metric>
inhibition at 0.03 µM

>  <units>
%

>  <recorded result>
48

$$$$
>  <compound>
CC(CCCC=C(c1cccnc1)c1ccsc1)C(=O)O (stereo not drawn) [Compound 2-e]

>  <measured metric>
inhibition at 0.03 µM

>  <units>
%

>  <recorded result>
65

$$$$
>  <compound>
O=C(O)C(CCC/C=C(\c1cccnc1)c1cccs1)c1ccccc1 (stereo not drawn) [Compound 2-n]

>  <measured metric>
inhibition at 0.03 µM

>  <units>
%

>  <recorded result>
41

$$$$
>  <compound>
Cc1ccc(S(=O)(=O)C(CCCC/C=C(\c2ccccc2)c2cccnc2)C(=O)O)cc1 (stereo not drawn) [Compound 1-d]

>  <measured metric>
inhibition at 0.03 µM

>  <units>
%

>  <recorded result>
57

$$$$

Value sought: inhibition at 0.03 µM, system Thromboxane A2 (TXA2) synthetase (Equus caballus, UniProt A0A9L0T8T9), item COC(=O)C(C)(CCC/C=C(\c1ccccc1)c1cccnc1)Sc1ccccc1 (stereo not drawn) [Compound 4-h] . Result: 30

Value sought: inhibition at 0.03 µM, system Thromboxane A2 (TXA2) synthetase (Equus caballus, UniProt A0A9L0T8T9), item COCC(CCC/C=C(\c1ccccc1)c1cccnc1)C(=O)O (stereo not drawn) [3'-i] . Result: 42

====

# tgt: Thromboxane A2 (TXA2) synthetase (Equus caballus, UniProt A0A9L0T8T9)
# Sequence (A0A9L0T8T9 2-534): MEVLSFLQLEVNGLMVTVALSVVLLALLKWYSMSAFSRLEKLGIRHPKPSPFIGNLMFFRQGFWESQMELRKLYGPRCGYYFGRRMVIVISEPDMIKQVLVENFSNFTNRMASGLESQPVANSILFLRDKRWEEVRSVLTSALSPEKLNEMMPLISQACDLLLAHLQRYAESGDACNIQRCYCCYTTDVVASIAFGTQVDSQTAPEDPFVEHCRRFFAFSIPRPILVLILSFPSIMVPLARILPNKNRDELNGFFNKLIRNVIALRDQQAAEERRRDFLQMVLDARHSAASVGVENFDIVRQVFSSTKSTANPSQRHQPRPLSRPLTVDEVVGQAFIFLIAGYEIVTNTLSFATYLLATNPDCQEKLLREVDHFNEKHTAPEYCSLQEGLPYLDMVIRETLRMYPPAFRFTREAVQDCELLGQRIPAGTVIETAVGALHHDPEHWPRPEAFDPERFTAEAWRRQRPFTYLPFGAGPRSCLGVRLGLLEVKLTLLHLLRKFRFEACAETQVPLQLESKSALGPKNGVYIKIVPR
# test details: Inhibitory Action on Thromboxane A2 (TXA2) Synthetase (indomethacin-treated horse platelet microsomes, TXB2 radioimmunoassay)
# Assay type: biochemical
# protocol conditions: 10^-7 M
Recorded inhibition at 0.1 µM, one value per entry.
# value in %; strip the unit string

O=C(O)C(CCC/C=C(/c1ccccc1)c1cccnc1)Cc1ccccc1 (stereo not shown) [3'-e] has a reported inhibition at 0.1 µM of 90

CC(C)(CCCC/C=C(/c1ccccc1)c1cccnc1)C(=O)O [Compound 1-m] has a reported inhibition at 0.1 µM of 92

COCC(CCC/C=C(\c1ccccc1)c1cccnc1)C(=O)O (stereo not shown) [3'-i] has a reported inhibition at 0.1 µM of 88

CC(C)(CCCC/C=C(\c1ccccc1)c1cccnc1)C(=O)O [Compound 1-l] has a reported inhibition at 0.1 µM of 90

O=C(O)C(CCC/C=C(/c1ccccc1)c1cccnc1)Sc1ccccc1 (stereo not shown) [Compound 4-c] has a reported inhibition at 0.1 µM of 88

CC(C)(CCC/C=C(/c1ccccc1)c1cccnc1)C(=O)O [Compound 2-b] has a reported inhibition at 0.1 µM of 90

====

Recorded inhibition at 0.1 µM, one value per entry.
# tgt: Thromboxane A2 (TXA2) synthetase (Equus caballus)
# test details: Inhibitory Action on Thromboxane A2 (TXA2) Synthetase (indomethacin-treated horse platelet microsomes, TXB2 radioimmunoassay)
# Type: biochemical
# protocol conditions: 10^-7 M
# value in %; strip the unit string

>  <compound>
CC(CCCC=C(c1cccnc1)c1ccsc1)C(=O)O (stereo not shown) [Compound 2-e]

>  <recorded result>
90

$$$$
>  <compound>
CC(C)(CCC/C=C(\c1ccccc1)c1cccnc1)C(=O)O [Compound 2-a]

>  <recorded result>
92

$$$$
>  <compound>
C=C(C)C(CCC/C=C(\c1ccccc1)c1cccnc1)C(=O)O (stereo not shown) [Compound 5-g]

>  <recorded result>
92

$$$$

CC(C)(CCC/C=C(/c1cccnc1)c1cccs1)C(=O)O [Compound 2-d] has a reported inhibition at 0.1 µM of 92
